src = paper doi:10.1101/2019.12.11.872838v1

- Experimental System: KDM1A (Homo sapiens, UniProt O60341)
Attribute Measured: IC50

Query: Recorded IC50 of `CO[C@H]1/C=C\C=C(/C)C(=O)NC2=CC(=O)C(NCCN(C)C)=C(C[C@@H](C)C[C@H](OC)[C@H](O)[C@@H](C)/C=C(\C)[C@@H]1OC(N)=O)C2=O` , please.
Result: > 10 µM
